The reported numbers originate from patent US3954793A.

# System: CH strain houseflies
# Test name: spray application of pyrethrum, percent knockdown as a function of time
# Format: in vivo
# Details: pyrethrum 100 + synergist 100 mg/cc; 50 minutes
# Method: The average percent knockdown of CH strain flies, as a function of time, resulting from spray application of pyrethrum, alone and with synergists, are given in Table XXXXIII. Duplicate tests were performed using 50 CH strain houseflies per test. Test solutions of 100 mg and 200mg of pyrethrum per cc of acetone, 200 mg of synergist per cc of acetone, and a mixture of 100 mg of pyrethrum and 100 mg of synergist per cc of acetone were prepared. […]
Assay readout: average percent knockdown, pyrethrum with synergist

C#CCOCc1c(Cl)ccc(Cl)c1Cl :: 93%
C#CCON=Cc1ccc(Cl)cc1Cl :: 93%
C#CCON=C(C)c1ccc(Cl)cc1 :: 87%
C#CCON=Cc1cccc2ccccc12 :: 86%
